test details: In vitro stability in rat liver homogenate
Format: in vitro ADME
assay context: tissue homogenate
Starred links: 1 amine or outer side, 2 acyl side, 3 side chain; linkers in the order of their positions; H or OH if unused. Non-standard residues stand in square brackets, D forms with d. Residues, ends and D or L forms follow the SMILES beside them. *: point of attachment. Phe(4-Cl) = N[C@@H](Cc1ccc(Cl)cc1)C(=O)O; γGlu = O=C(O)[C@H](CCC(=O)[*:2])N[*:1]; NMeR = CN[C@@H](CCCNC(=N)N)C(=O)O; Tridecanoyl = CCCCCCCCCCCCC(=O)*; Nle = CCCC[C@H](N)C(=O)O; AEEA = NCCOCCOCC(=O)O; βAla = NCCC(=O)O
Listed here are compounds together with their documented remaining at 4 h, 5 μM.

| compound | remaining at 4 h, 5 μM |
| --- | --- |
| CCCCCC(=O)N[C@@H](CCC(=O)NCCOCCOCC(=O)NCCOCCOCC(=O)N[C@@H](CCC(N)=O)C(=O)N(C)[C@@H](CCCCNC(=N)N)C(=O)N1CCC[C@H]1C(=O)N(C)[C@@H](CCCNC(=N)N)C(=O)N[C@@](C)(CC(C)C)C(=O)N[C@@H](CO)C(=O)N[C@@H](Cc1c[nH]cn1)C(=O)N[C@@H](CCCCN)C(=O)NCC(=O)N1CCC[C@H]1C(=O)N[C@@H](CCCC)C(=O)N1CCC[C@H]1C(=O)N[C@@H](Cc1ccc(Cl)cc1)C(=O)O)C(=O)O [compound 561] | < 1% |
| CCCC[C@H](NC(=O)[C@@H]1CCCN1C(=O)CNC(=O)[C@H](CCCCN)NC(=O)[C@H](Cc1c[nH]cn1)NC(=O)[C@H](CO)NC(=O)[C@H](CC(C)C)NC(=O)[C@H](CCCNC(=N)N)N(C)C(=O)[C@@H]1CCCN1C(=O)[C@H](CCCNC(=N)N)NC(=O)[C@H](CCC(N)=O)NC(=O)COCCOCCNC(=O)COCCOCCNC(=O)CC[C@H](NC(=O)CCCCCCC(=O)O)C(=O)O)C(=O)N1CCC[C@H]1C(=O)N[C@@H](Cc1ccc(Cl)cc1)C(=O)O [compound 508] | < 1% |
| CCCCCCCCCCCCC(=O)N[C@@H](CCC(=O)NCCOCCOCC(=O)NCCOCCOCC(=O)N[C@@H](CCC(N)=O)C(=O)N[C@@H](CCCNC(=N)N)C(=O)N1CCC[C@H]1C(=O)N(C)[C@@H](CCCNC(=N)N)C(=O)N[C@@H](CC(C)C)C(=O)NCCC(=O)N[C@@H](Cc1c[nH]cn1)C(=O)N[C@@H](CCCCN)C(=O)NCC(=O)N1CCC[C@H]1C(=O)N[C@@H](CCCC)C(=O)N1CCC[C@H]1C(=O)N[C@@H](Cc1ccc(Cl)cc1)C(=O)O)C(=O)O [compound 464] ({Tridecanoyl-γGlu-AEEA-AEEA}-QRP[NMeR]L[βAla]HKGP[Nle]P[Phe(4-Cl)]-OH) | < 1% |
| CCCC[C@H](NC(=O)[C@@H]1CCCN1C(=O)CNC(=O)[C@H](CCCCN)NC(=O)[C@H](Cc1c[nH]cn1)NC(=O)[C@H](CO)NC(=O)[C@](C)(CC(C)C)NC(=O)[C@H](CCCNC(=N)N)N(C)C(=O)[C@@H]1CCCN1C(=O)[C@H](CCCCNC(=N)N)NC(=O)[C@H](CCC(N)=O)NC(C)=O)C(=O)N1CCC[C@H]1C(=O)N[C@@H](Cc1ccc(Cl)cc1)C(=O)O [compound 71] | 35.5% |
| CCCCCCCCCCCCC(=O)N[C@@H](CCC(=O)NCCOCCOCC(=O)NCCOCCOCC(=O)N[C@@H](CCC(N)=O)C(=O)N[C@@H](CCCNC(=N)N)C(=O)N1CCC[C@H]1C(=O)N(C)[C@@H](CCCCNC(=N)N)C(=O)N[C@@H](CC(C)C)C(=O)N[C@@H](CO)C(=O)N[C@@H](Cc1c[nH]cn1)C(=O)N[C@@H](CCCCN)C(=O)NCC(=O)N1CCC[C@H]1C(=O)N[C@@H](CCCC)C(=O)N1CCC[C@H]1C(=O)N[C@@H](Cc1ccc2ccccc2c1)C(=O)O)C(=O)O [compound 471] | < 1% |
| CCCCCCCCCCCCC(=O)N[C@@H](CCC(=O)NCCOCCOCC(=O)NCCOCCOCC(=O)N[C@@H](CCC(N)=O)C(=O)N[C@@H](CCCNC(=N)N)C(=O)N1CCC[C@@]1(C)C(=O)N[C@@H](CCCCNC(=N)N)C(=O)N[C@@](C)(CC(C)C)C(=O)N[C@@H](CO)C(=O)N[C@@H](Cc1c[nH]cn1)C(=O)N[C@@H](CCCCN)C(=O)NCC(=O)N1CCC[C@H]1C(=O)N[C@@H](CCCC)C(=O)N1CCC[C@H]1C(=O)N[C@@H](Cc1ccc(Cl)cc1)C(=O)O)C(=O)O [compound 482] | < 1% |
| CCCC[C@H](NC(=O)[C@@H]1CCCN1C(=O)CNC(=O)[C@H](CCCCN)NC(=O)[C@H](Cc1c[nH]cn1)NC(=O)[C@H](CO)NC(=O)[C@](C)(CC(C)C)NC(=O)[C@H](CCCCNC(=N)N)NC(=O)[C@@H]1CCCN1C(=O)[C@@H](CCCNC(=N)N)NC(=O)[C@H](CCC(N)=O)NC(C)=O)C(=O)N1CCC[C@H]1C(=O)N[C@@H](Cc1ccc(Cl)cc1)C(=O)O [compound 70] | 84.9% |
| CCCCCCCCCCCCC(=O)N[C@@H](CCC(=O)NCCOCCOCC(=O)NCCOCCOCC(=O)N[C@@H](CCC(N)=O)C(=O)N[C@@H](CCCNC(=N)N)C(=O)N1CCC[C@H]1C(=O)N(C)[C@@H](CCCNC(=N)N)C(=O)N[C@@H](CC(C)C)C(=O)N[C@@H](CO)C(=O)N[C@@H](Cc1c[nH]cn1)C(=O)NCCC(=O)NCC(=O)N1CCC[C@H]1C(=O)N[C@@H](CCCC)C(=O)N1CCC[C@H]1C(=O)N[C@@H](Cc1ccc(Cl)cc1)C(=O)O)C(=O)O [compound 424] ({Tridecanoyl-γGlu-AEEA-AEEA}-QRP[NMeR]LSH[βAla]GP[Nle]P[Phe(4-Cl)]-OH) | < 1% |

Q: Suppose we examine the compound CCCCCCCCCCCCCCC(=O)N[C@@H](CCC(=O)NCCOCCOCC(=O)NCCOCCOCC(=O)N[C@@H](CCC(N)=O)C(=O)N[C@@H](CCCNC(=N)N)C(=O)N1CCC[C@H]1C(=O)N(C)[C@@H](CCCNC(=N)N)C(=O)N[C@@H](CC(C)C)C(=O)N[C@@H](CO)C(=O)N[C@@H](Cc1c[nH]cn1)C(=O)N[C@@H](CCCCN)C(=O)NCC(=O)N1CCC[C@H]1C(=O)N[C@@H](CCCC)C(=O)N1CCC[C@H]1C(=O)N[C@@H](Cc1ccc(Cl)cc1)C(=O)O)C(=O)O [compound 495] ; what remaining at 4 h, 5 μM value has been reported?
A: < 1%

Each recorded value in this set is attributed to patent US11807693B2.
